Tested on: SF-539
Assay: NCI tumour cell line growth inhibition, 48 h
Activity calls are given as the source filed them. Rule as the data show it: active = GI50 up to about 1.1 µM and inactive = higher.
readout: GI50

{"compound": "Cc1onc(-c2c(F)cccc2Cl)c1C(=O)N[C@@H]1C(=O)N2[C@@H]1SC(C)(C)[C@@H]2C(=O)O", "measurementTarget": "SF-539", "readout": "GI50", "recordedMeasurement": "> 100 µM (inactive)"}
{"compound": "CCCCCCCCCCCCCCCCCCNc1nc(=O)n(C2CC(O)C(COP(=O)(O)OCC(COP(=O)(O)OC3C(CO)OC(n4ccc(N)nc4=O)C3O)OCCCCCCCCCCCCCCCCCC)O2)cc1F (stereo not given)", "measurementTarget": "SF-539", "readout": "GI50", "recordedMeasurement": "17.4 µM (inactive)"}
{"compound": "CN(C(=O)c1cccs1)C(=S)N1CCN(c2ccccn2)CC1", "measurementTarget": "SF-539", "readout": "GI50", "recordedMeasurement": "> 100 µM (inactive)"}
{"compound": "NC1CC(=O)c2csc(Br)c21 (stereo not given)", "measurementTarget": "SF-539", "readout": "GI50", "recordedMeasurement": "2.52 µM (inactive)"}
{"compound": "O=C1CC(NC2CC(=O)c3c(Br)sc(Br)c32)c2c(Br)sc(Br)c21 (stereo not given)", "measurementTarget": "SF-539", "readout": "GI50", "recordedMeasurement": "1.27 µM (inactive)"}
{"compound": "CCN(CC)CCNc1ccc2ncn3c4ccccc4c(=O)c1c23", "measurementTarget": "SF-539", "readout": "GI50", "recordedMeasurement": "5.86 µM (inactive)"}
{"compound": "COc1ccc2[nH]c3c([N+](=O)[O-])ccc(Cl)c3c(=O)c2c1", "measurementTarget": "SF-539", "readout": "GI50", "recordedMeasurement": "17.9 µM (inactive)"}
{"compound": "N#Cc1ccc(C(O)C(F)(F)c2nc3ccccc3o2)cc1 (stereo not given)", "measurementTarget": "SF-539", "readout": "GI50", "recordedMeasurement": "43.9 µM (inactive)"}
{"compound": "O=C1C/C(=C\\O)C(=O)c2ccccc2N1", "measurementTarget": "SF-539", "readout": "GI50", "recordedMeasurement": "> 100 µM (inactive)"}
{"compound": "CCOC(=O)c1ccc(-n2c(SCC)nc3sc(C)c(C)c3c2=O)cc1", "measurementTarget": "SF-539", "readout": "GI50", "recordedMeasurement": "> 100 µM (inactive)"}

---

System: MDA-N
Assay: NCI tumour cell line growth inhibition, 48 h
Active and inactive are the calls of the source. Cut-off read from the data, not from the text of the source: active = GI50 up to about 1.1 µM and inactive = higher.
readout: GI50

{"compound": "CO/C(N)=C(C#N)/N=C/c1ccsc1", "recordedMeasurement": "28.5 µM (inactive)"}
{"compound": "C[C@]12CC[C@H]3[C@@H](CCC4=CC(=O)CC[C@@]43C)[C@@H]1CC[C@@H]2OC(=O)c1cccc2c(=O)c3ccccc3[nH]c12", "recordedMeasurement": "42.1 µM (inactive)"}
{"compound": "O=C(O)CCCSc1ccccc1", "recordedMeasurement": "> 100 µM (inactive)"}
{"compound": "C=C1c2[nH]c3ccccc3c2C2C(CC)C1CCN2C (stereo not given)", "recordedMeasurement": "72.8 µM (inactive)"}
{"compound": "Cc1ccc(S(=O)(=O)Nn2c(O)c(C#N)c(-c3ccc(Cl)cc3)c(C#N)c2=O)cc1", "recordedMeasurement": "> 100 µM (inactive)"}

Attribution: ChEMBL document CHEMBL1201862
